These entries and their values trace back to PubChem BioAssay (NCI).

# System: CAKI-1 renal
# Test details: NCI-60 one-dose screen, 48 h (100 = growth as untreated, 0 = no growth, -100 = all killed)
# Protocol conditions: 10 µM unless noted
Compounds without any hit were thinned out: in the full panel of roughly 83,000, 20% have a hit.
Here the recorded growth is given for each entry.
Numbers only here, please. The scale is %.

Ask: growth lookup needed for `COC(=O)C12CC(NC(=O)c3csc([C@@H](C[C@H](C(C)C)N(C)C(=O)[C@@H](NC(=O)[C@H]4CCCCN4C)C4CC4)OC(C)=O)n3)(C1)C2` , thanks.
Result: 38.6

Ask: growth lookup needed for O=C(CC1(O)C(=O)N(Cc2ccccc2)c2ccc(F)cc21)c1ccc(C(=O)NCC2CCC3(CC2)OOC2(CCCCC2)OO3)cc1 (stereo not given) , thanks.
Result: -87.1

Ask: growth lookup needed for Cc1ccc(C(Cc2ccccc2)NCCO)cc1 (stereo not given) , thanks.
Result: 98

Ask: growth lookup needed for CC(C)(C)C(=O)OCOP(=O)(NCc1ccccc1)C1CCCN(O)C1=O (stereo not given) , thanks.
Result: 31.9

Next:
Ask: growth lookup needed for `COc1cc2c(cc1OCCCCCn1c(-c3ccco3)nc3ccccc31)N=C[C@@H]1CCCN1C2=O` , thanks.
Result: 12

Ask: growth lookup needed for `CNCc1cccnc1` , thanks.
Result: 92

Ask: growth lookup needed for O=C1CC2(CC3(Cl)C(Cl)=C(Cl)C2(Cl)C3(Cl)Cl)C(=O)O1 (stereo not given) , thanks.
Result: 97.9

Ask: growth lookup needed for `O=C(O)C(Cl)(Cl)C(F)(F)F` , thanks.
Result: 95

Ask: growth lookup needed for `O=C(CN1CCN(C(=O)c2ccco2)CC1)Nc1ccc(Cl)cc1C(=O)c1ccccc1Cl` , thanks.
Result: 91.7

Ask: growth lookup needed for CN1CC(CNC(=O)OCc2ccccc2)CC2c3cccc4c3c(cn4C)CC21 (stereo not given) , thanks.
Result: 52.9
